The reported numbers originate from ChEMBL document CHEMBL2218924.

TARGET_DESC: Tyrosine-protein kinase BTK (Homo sapiens) (UniProt Q06187)
Sequence (Q06187 whole entry): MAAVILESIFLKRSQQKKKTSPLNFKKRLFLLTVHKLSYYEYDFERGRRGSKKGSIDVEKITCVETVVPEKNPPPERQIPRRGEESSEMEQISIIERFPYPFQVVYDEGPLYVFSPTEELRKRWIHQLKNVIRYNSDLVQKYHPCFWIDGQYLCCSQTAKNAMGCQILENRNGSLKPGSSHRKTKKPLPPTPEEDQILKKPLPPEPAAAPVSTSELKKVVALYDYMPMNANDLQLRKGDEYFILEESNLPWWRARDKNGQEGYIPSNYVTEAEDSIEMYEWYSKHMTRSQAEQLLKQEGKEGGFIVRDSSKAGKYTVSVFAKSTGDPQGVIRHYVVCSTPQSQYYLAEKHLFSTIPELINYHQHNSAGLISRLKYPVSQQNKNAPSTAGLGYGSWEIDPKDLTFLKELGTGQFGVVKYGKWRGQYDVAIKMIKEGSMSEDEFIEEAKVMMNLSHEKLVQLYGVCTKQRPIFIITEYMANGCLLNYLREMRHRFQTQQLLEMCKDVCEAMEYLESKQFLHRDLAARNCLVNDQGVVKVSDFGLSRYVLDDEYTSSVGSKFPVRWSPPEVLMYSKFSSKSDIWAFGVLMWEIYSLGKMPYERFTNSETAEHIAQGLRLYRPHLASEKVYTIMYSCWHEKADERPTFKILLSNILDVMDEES
CONDITION_DETAILS: at 1 µM
QUANTITY_NAME: residual activity (%)
Numeric answer only, unit % assumed.

Completed entries (count: 3):
- MOL: "O=c1[nH]c2ccccc2n1C1CCN(Cc2ccc(-c3nc4cc5[nH]cnc5cc4nc3-c3ccccc3)cc2)CC1"
  TARGET_DESC: "Tyrosine-protein kinase BTK (Homo sapiens) (UniProt Q06187)"
  OUTPUT_UNIT: "%"
  residual activity: 91
- MOL: "CCc1nc(-c2ccc(OC)cc2)[nH]c1-c1ccncc1"
  TARGET_DESC: "Tyrosine-protein kinase BTK (Homo sapiens) (UniProt Q06187)"
  OUTPUT_UNIT: "%"
  residual activity: 100
- MOL: "COc1cc(OC)c(/C=C2\\C(=O)Nc3ccccc32)c(OC)c1"
  TARGET_DESC: "Tyrosine-protein kinase BTK (Homo sapiens) (UniProt Q06187)"
  OUTPUT_UNIT: "%"
  residual activity: 93

Give me measured residual activity, please, for this compound: CC(C)[C@H](CO)Nc1nc(Nc2cccc(Cl)c2)c2ncn(C(C)C)c2n1
56

Assign residual activity to the following record: COC(=O)[C@@]1(O)C[C@H]2O[C@]1(C)n1c3ccccc3c3c4c(c5c6ccccc6n2c5c31)C(=O)NC4
-1

Look up and report measured residual activity for this entry: c1cc(-c2cnn3cc(-c4ccc(OCCN5CCCCC5)cc4)cnc23)ccn1
69

---

TARGET_DESC: Serine/threonine-protein kinase pim-3 (Homo sapiens)
CONDITION_DETAILS: at 1 µM
QUANTITY_NAME: residual activity (%)
Form entry: value (%) — number only.

Examples with answers:
- MOL: "CC(C)[C@H](CO)Nc1nc(Nc2cccc(Cl)c2)c2ncn(C(C)C)c2n1"
  OUTPUT_UNIT: "%"
  residual activity: 87
- MOL: "COc1ccc2c(c[n+](C)c3c4cc5c(cc4ccc23)OCO5)c1OC"
  OUTPUT_UNIT: "%"
  residual activity: 100
- MOL: "COC(=O)[C@@]1(O)C[C@H]2O[C@]1(C)n1c3ccccc3c3c4c(c5c6ccccc6n2c5c31)C(=O)NC4"
  OUTPUT_UNIT: "%"
  residual activity: 31
- MOL: "O=C1Nc2ccc3ncsc3c2/C1=C/c1c[nH]cn1"
  OUTPUT_UNIT: "%"
  residual activity: 53
- MOL: "O=[N+]([O-])/C=C/c1ccc2c(c1)OCO2"
  OUTPUT_UNIT: "%"
  residual activity: 101

Item CC(C)(C)c1cc(C=C(C#N)C#N)cc(Br)c1O : provide residual activity
105

---

Recorded residual activity, one value per entry.
TARGET_DESC: Macrophage-stimulating protein receptor (Homo sapiens) (UniProt Q04912)
Sequence (Q04912 25-304 limits assumed): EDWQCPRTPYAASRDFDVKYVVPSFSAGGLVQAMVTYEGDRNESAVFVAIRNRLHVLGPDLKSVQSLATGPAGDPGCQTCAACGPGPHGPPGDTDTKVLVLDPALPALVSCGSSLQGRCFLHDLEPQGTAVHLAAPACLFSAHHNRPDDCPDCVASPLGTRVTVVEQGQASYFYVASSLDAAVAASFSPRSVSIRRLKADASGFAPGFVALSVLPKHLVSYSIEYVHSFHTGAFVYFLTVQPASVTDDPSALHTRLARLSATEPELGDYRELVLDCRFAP
Sequence (Q04912 310-1400 limits assumed): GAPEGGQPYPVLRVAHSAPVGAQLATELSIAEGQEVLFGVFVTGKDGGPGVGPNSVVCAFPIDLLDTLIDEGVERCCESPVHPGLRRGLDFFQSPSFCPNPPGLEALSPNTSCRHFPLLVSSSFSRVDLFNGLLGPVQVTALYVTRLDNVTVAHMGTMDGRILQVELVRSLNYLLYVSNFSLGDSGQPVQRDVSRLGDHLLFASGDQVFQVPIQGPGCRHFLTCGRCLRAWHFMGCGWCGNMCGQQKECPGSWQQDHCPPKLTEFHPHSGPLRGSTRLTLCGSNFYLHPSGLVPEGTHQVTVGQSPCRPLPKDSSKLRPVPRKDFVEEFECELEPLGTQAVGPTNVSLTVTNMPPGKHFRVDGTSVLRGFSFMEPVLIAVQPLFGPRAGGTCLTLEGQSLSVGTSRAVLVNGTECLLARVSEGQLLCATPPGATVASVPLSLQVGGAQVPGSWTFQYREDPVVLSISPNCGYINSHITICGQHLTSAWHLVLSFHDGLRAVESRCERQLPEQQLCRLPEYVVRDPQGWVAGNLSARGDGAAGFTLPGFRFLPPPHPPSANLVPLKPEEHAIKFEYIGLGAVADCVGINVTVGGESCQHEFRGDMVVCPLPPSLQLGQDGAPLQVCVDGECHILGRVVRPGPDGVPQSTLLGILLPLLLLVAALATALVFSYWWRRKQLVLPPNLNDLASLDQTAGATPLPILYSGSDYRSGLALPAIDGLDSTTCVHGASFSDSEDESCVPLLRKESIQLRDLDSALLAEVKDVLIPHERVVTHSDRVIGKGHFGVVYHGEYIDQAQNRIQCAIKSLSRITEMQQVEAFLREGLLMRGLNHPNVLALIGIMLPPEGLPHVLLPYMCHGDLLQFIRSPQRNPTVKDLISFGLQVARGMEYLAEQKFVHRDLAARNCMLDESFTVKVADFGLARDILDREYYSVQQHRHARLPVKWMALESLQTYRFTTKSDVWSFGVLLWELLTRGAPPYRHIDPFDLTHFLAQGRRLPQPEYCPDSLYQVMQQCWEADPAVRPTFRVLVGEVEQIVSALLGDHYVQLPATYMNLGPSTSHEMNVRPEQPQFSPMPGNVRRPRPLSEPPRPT
CONDITION_DETAILS: at 1 µM

- MOL: "CCn1cnc2c(Nc3cccc(Cl)c3)nc(N[C@@H]3CCCC[C@@H]3N)nc21"
  TARGET_DESC: "Macrophage-stimulating protein receptor (Homo sapiens) (UniProt Q04912)"
  RESULT: "85%"

Report measured residual activity; entry is COc1cc(OC)c(/C=C2\C(=O)Nc3ccccc32)c(OC)c1
77%

# return recorded residual activity for entry O=C1Nc2ccc3ncsc3c2/C1=C/c1c[nH]cn1
60%
